experimental.system: EGFR exon 20 SVD Ins D770_N771 (Ba/F3 cells) (Homo sapiens, UniProt P00533, INS770SVD)
Construct: expressed in transfected cells; host or cells: Ba/F3 (murine pro-B cells), retroviral transduction, puromycin selection, IL3-independent pool
Sequence (P00533 with tags, fused parts or gaps INS770SVD): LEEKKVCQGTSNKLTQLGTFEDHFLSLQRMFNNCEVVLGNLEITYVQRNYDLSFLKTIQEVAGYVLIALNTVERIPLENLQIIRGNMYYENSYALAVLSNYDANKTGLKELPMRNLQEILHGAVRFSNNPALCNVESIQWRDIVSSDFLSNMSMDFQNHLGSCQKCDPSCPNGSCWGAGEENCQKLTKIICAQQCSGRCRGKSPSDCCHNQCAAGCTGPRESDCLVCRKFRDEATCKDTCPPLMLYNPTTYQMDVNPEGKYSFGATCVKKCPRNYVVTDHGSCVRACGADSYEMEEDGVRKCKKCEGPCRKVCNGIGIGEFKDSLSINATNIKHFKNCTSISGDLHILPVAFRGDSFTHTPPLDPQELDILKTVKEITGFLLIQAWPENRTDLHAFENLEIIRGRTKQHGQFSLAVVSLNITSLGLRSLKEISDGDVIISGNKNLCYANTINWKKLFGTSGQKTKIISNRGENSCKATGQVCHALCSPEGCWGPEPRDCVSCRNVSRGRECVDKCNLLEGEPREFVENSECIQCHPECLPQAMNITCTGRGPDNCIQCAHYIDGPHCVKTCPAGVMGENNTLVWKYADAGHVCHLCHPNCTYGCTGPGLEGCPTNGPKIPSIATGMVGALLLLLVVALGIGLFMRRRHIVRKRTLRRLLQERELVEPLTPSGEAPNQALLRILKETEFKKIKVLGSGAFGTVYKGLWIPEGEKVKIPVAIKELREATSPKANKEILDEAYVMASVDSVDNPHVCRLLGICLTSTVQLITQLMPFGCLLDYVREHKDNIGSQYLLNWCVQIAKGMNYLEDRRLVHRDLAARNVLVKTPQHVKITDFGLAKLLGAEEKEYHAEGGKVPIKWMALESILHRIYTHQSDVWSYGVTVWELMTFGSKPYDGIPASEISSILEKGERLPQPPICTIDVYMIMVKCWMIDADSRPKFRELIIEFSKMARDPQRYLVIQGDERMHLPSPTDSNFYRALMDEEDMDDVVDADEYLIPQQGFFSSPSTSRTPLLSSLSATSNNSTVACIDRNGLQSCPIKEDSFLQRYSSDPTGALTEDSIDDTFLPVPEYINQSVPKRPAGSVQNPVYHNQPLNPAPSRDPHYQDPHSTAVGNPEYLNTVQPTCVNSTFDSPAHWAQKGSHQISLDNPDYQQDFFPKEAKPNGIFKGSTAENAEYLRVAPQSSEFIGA
assay.method.text: Inhibitor activity on EGFR-dependent cell growth (CellTiter-Glo, 72 h), Ba/F3 EGFR exon 20 SVD Ins
Assay type: cell-based
stated.conditions: read-out: BaF3 SVD IC50
So I've got a bunch of compounds here, and I need their IC50 values.

• COc1c(Cl)cccc1Nc1c(-c2ccncc2F)[nH]c2c1C(=O)NC[C@]21CCN(S(C)(=O)=O)C1 [compound 494] = > 1 µM
• COc1c(Cl)cc(F)cc1Nc1c(-c2ccnc(N)n2)[nH]c2c1C(=O)NCC2 [Compound 714, trifluoroacetic acid] = 0.1 to 1 µM
• COc1c(Cl)cccc1Nc1c(-c2ccnc3ccc(OCC4CC4)nc23)[nH]c2c1C(=O)NCC2 [compound 755] = < 0.1 µM
• COc1nc2c(-c3[nH]c4c(c3Nc3cccc(Cl)c3OC)C(=O)NCC4)ccnc2cc1F [compound 477] = < 0.1 µM
• C=CC(=O)N1CCC(Oc2nc3c(-c4[nH]c5c(c4Nc4cccc(F)c4OC)C(=O)NCC5)ccnc3cc2OC)CC1 [Compound 554] = < 0.1 µM

I have 6 compounds here; please give me IC50 for each one.
1. COc1c(Cl)cccc1Nc1c(-c2ccnc(N)n2)[nH]c2c1C(=O)N[C@@H](C)C2 [187a]
2. COc1c(Cl)cccc1Nc1c(-c2ccnc(NC[C@H]3CCCO3)n2)[nH]c2c1C(=O)NCC2 [compound 721]
3. COc1c(F)cccc1Nc1c(-c2ccnc(C)n2)[nH]c2c1C(=O)NCC21CCN(C(=O)/C=C/CN(C)C)CC1 [compound 649]
4. COc1c(Cl)cccc1Nc1c(-c2ccnc(NC(=O)C3CC3)n2)[nH]c2c1C(=O)NCC2 [compound 221]
5. COCC[C@H]1CNC(=O)c2c1[nH]c(-c1ccncc1F)c2Nc1cccc(F)c1OC [421a]
6. COc1c(Cl)cccc1Nc1c(-c2ccnc3ccc(OCC4COC4)nc23)[nH]c2c1C(=O)NCC2 [compound 737]

Solution:
1. 0.1 to 1 µM
2. > 1 µM
3. 0.1 to 1 µM
4. 0.1 to 1 µM
5. 0.1 to 1 µM
6. < 0.1 µM

---

Exercise: for every item that follows, state its recorded pIC50.
experimental.system: EGFR WT (Ba/F3 cells) (Homo sapiens, UniProt P00533)
Sequence (P00533 25-1210): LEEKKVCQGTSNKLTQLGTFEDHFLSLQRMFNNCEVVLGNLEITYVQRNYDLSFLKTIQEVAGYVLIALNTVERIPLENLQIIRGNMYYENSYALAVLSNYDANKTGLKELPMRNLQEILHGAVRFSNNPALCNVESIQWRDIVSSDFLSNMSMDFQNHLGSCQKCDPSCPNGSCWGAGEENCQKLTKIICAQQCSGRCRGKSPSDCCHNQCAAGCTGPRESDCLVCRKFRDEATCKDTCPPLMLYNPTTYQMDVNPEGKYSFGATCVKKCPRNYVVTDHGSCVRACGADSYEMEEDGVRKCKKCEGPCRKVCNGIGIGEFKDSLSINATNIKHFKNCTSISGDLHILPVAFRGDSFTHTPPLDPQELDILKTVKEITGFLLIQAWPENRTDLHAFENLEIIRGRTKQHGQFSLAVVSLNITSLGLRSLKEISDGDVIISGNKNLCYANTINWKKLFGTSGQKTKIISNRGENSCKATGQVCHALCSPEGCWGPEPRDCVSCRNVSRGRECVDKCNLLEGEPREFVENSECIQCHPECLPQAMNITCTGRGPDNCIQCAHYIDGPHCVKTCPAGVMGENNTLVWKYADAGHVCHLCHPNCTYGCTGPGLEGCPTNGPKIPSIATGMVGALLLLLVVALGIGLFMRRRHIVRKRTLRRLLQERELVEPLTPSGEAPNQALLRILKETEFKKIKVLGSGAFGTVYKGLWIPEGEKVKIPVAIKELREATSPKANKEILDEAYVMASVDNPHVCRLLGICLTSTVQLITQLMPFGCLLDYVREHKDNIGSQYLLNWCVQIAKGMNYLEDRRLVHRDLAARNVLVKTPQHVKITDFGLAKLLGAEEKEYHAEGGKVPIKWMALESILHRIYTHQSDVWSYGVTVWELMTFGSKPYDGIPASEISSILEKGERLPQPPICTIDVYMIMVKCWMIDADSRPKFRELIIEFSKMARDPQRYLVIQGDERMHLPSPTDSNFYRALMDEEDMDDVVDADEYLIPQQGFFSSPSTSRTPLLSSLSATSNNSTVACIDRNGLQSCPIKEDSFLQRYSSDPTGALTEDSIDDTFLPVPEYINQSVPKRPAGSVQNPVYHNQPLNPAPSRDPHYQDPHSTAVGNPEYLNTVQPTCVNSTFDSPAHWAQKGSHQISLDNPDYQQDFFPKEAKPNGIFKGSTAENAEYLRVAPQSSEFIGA
assay.method.text: Inhibitor activity on EGFR-dependent cell growth (CellTiter-Glo, 72 h), Ba/F3 EGFR WT
stated.conditions: read-out: BaF3 WT IC50
pIC50: −log10 of the molar value.

Below are worked cases with known answers.
- COc1c(F)cccc1Nc1c(-c2ccnc3cnc(OC4CC4)nc23)[nH]c2c1C(=O)NCC2: > 7.00
- COc1c(Cl)cccc1Nc1c(-c2ccnc3ccc(OC4(C)CC4)nc23)[nH]c2c1C(=O)NC[C@@H]2C (single isomer, unassigned): > 7.00
- Cc1c(F)cccc1Nc1c(-c2ccnc(N)n2)[nH]c2c1C(=O)NCC2: 6.00 to 7.00
- COc1c(Cl)cccc1Nc1c(-c2ccnc(Nc3cnnn3CS(C)(=O)=O)n2)[nH]c2c1C(=O)NCC2: < 6.00
- COc1c(Cl)cccc1Nc1c(-c2ccnc(N)n2)[nH]c2c1C(=O)NC[C@@H]2C[C@@H]1COCCO1: < 6.00
- COCC[C@@H]1CNC(=O)c2c1[nH]c(-c1ccncc1F)c2Nc1cccc(Cl)c1OC: 6.00 to 7.00

// for each compound in input: emit pIC50
1. COc1c(Cl)cccc1Nc1c(-c2ccnc3ccc(OCC4CC4)nc23)[nH]c2c1C(=O)NCC2
2. COc1c(Cl)cccc1Nc1c(-c2ccncc2F)[nH]c2c1C(=O)NC[C@H]2CC(F)F
3. C=CC(=O)N1CCN(c2ncc3nccc(-c4[nH]c5c(c4Nc4cccc(F)c4OC)C(=O)NCC5)c3n2)CC1
4. COc1c(Cl)cccc1Nc1c(-c2ccnc3ccc(OCC4CN(C)C4)nc23)[nH]c2c1C(=O)NCC2
5. COc1cc2c(-c3[nH]c4c(c3Nc3cccc(Cl)c3OC)C(=O)NCC4)ccnc2cn1
6. COc1c(Cl)cccc1Nc1c(-c2ccnc3cc(F)cnc23)[nH]c2c1C(=O)NCC2

Solution:
1: 6.00 to 7.00; 2: < 6.00; 3: > 7.00; 4: 6.00 to 7.00; 5: < 6.00; 6: 6.00 to 7.00

Below are 6 compounds. Give each one its pIC50.
1. CCOc1ncc2nccc(-c3[nH]c4c(c3Nc3cccc(Cl)c3OC)C(=O)NCC4)c2n1
2. COc1c(Cl)cc(F)cc1Nc1c(-c2ccnc(N)n2)[nH]c2c1C(=O)NCC2
3. C#Cc1cccc(Nc2c(-c3ccnc(N)n3)[nH]c3c2C(=O)NCC3)c1OC
4. COc1ccc2nccc(-c3[nH]c4c(c3Nc3cccc(Cl)c3OC)C(=O)NCC43CCC3)c2n1
5. COc1c(Cl)cccc1Nc1c(-c2ccnc(Nc3cnn(CC(F)F)c3)n2)[nH]c2c1C(=O)NCC2
6. CCc1c(Cl)cccc1Nc1c(-c2ccnc3cnc(OC)nc23)[nH]c2c1C(=O)NCC2

Solution:
1: > 7.00; 2: < 6.00; 3: < 6.00; 4: > 7.00; 5: > 7.00; 6: 6.00 to 7.00

// for each compound below, give its pIC50
1. COc1c(Cl)cccc1Nc1c(-c2ccnc(NCC(C)(C)O)n2)[nH]c2c1C(=O)NCC2
2. COc1c(Cl)cccc1Nc1c(-c2ccncc2F)[nH]c2c1C(=O)NC[C@]21CCN(C)C1
3. C=CC(=O)N1CCC2(CC1)CNC(=O)c1c2[nH]c(-c2ccncn2)c1Nc1cccc(F)c1OC
4. COc1c(F)cccc1Nc1c(-c2ccncn2)[nH]c2c1C(=O)NCC2C[C@H]1COCCO1 (single isomer, unassigned) [Compound 572]
5. CNc1nccc(-c2[nH]c3c(c2Nc2cccc(F)c2C)C(=O)NCC3)n1

Solution:
1: < 6.00; 2: < 6.00; 3: > 7.00; 4: < 6.00; 5: > 7.00

Please give pIC50 for each item listed below.
1. COc1ccc2nccc(-c3[nH]c4c(c3Nc3cccc(Cl)c3OC)C(=O)NC[C@@H]4C)c2n1 [310b]
2. COc1c(Cl)cccc1Nc1c(-c2ccncc2F)[nH]c2c1C(=O)NCC2CC1CCO1 (single isomer, unassigned) [Compound 786]
3. COc1c(Cl)cccc1Nc1c(-c2ccnc3ccc(OC4CC(F)(F)C4)nc23)[nH]c2c1C(=O)NCC2

Solution:
> 7.00
6.00 to 7.00
6.00 to 7.00

The reported numbers originate from patent US20240101576A1.
